# Test summary: Restrictive medium S. cerevisiae growth inhibition, OD615, pilot screen of yeast lifespan reduction project, restrictive growth control (AID 706);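 further: modified DeaD lifespan yeast strain shifted to restrictive glucose medium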
# Stated conditions: OD615, 48 h, at 10 µM, stronger effect = higher value
Measured endpoint: growth inhibition (%)
Just the number in %, nothing appended.

[
  {
    "Compound": "CCSc1nnc2c(n1)[nH]c1c(C)cccc12",
    "growth inhibition (%)": -1.28
  },
  {
    "Compound": "O=C(CC(c1ccccc1)c1ccccc1)Nc1ncn[nH]1",
    "growth inhibition (%)": 9.86
  },
  {
    "Compound": "CCOC(=O)N1CCN(C(=O)NC23CC4CC(CC(C4)C2)C3)CC1",
    "growth inhibition (%)": -5.79
  },
  {
    "Compound": "O=C(NC1CCCc2ccccc21)C1CCN(c2c(N3CCCC3)c(=O)c2=O)CC1 (stereo not given)",
    "growth inhibition (%)": -2.66
  },
  {
    "Compound": "O=C(Nc1ccc(S(=O)(=O)N2CCCC2)cc1)C1COc2ccccc2O1 (stereo not given)",
    "growth inhibition (%)": -15.6
  },
  {
    "Compound": "COc1ccc(Cc2nnc(SC)[nH]c2=O)cc1OC",
    "growth inhibition (%)": -16.6
  },
  {
    "Compound": "COc1ccc(CNC(=O)C2CCN(S(=O)(=O)c3cccc4cccnc34)CC2)cc1",
    "growth inhibition (%)": 3.15
  },
  {
    "Compound": "COC(=O)C1=CN(C)C=C(C(=O)OC)C1c1ccsc1",
    "growth inhibition (%)": -4.37
  }
]

Measured growth inhibition, COc1ccc(N2Cc3cccc(C(=O)N4CCN(C(=O)c5ccco5)CC4)c3C2=O)cc1 : 11.3

Measured growth inhibition, Cc1c(C(=O)NCc2cccnc2)sc2nc(-c3ccccc3)cn12 : 8.62

Measured growth inhibition, CNC(=O)CN1C(=O)c2ccccc2S1(=O)=O : 1.27

Measured growth inhibition, Cc1ccc(S(=O)(=O)Cc2ccc(C(=O)N3CCCCCC3)o2)cc1 : -22.4

Measured growth inhibition, CC(C)C(=O)Nc1c(C(=O)c2ccc(F)cc2)oc2ccccc12 : -2.55

Measured growth inhibition, CCOc1cccc(-c2nc(C(N)=O)c3[nH]c(=O)n(-c4cccc(Cl)c4)c3n2)c1O : -7.1

Measured growth inhibition, CCOC(=O)N1CCC(N2C(=O)c3cc(C(=O)NC4CCCCC4)ccc3C2O)CC1 (stereo not given) : -0.895

Measured growth inhibition, c1ccc(Sc2nc(N3CCCCC3)nc(N3CCCCC3)n2)nc1 : -1.59

* * *

# Test summary: growth suppression of PTEN-deleted HCT116, pilot screen, cell-based, HCT116 clonal line, CellTiter-Glo (AID 824);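 further: 0% = 20 µM Hyamine control and 100% = vehicle cell control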
# Stated conditions: 60 h, at 10 µM, stronger effect = lower value
Results filed as inconclusive are left out. Active and inactive are the calls of the source.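 The calls were made as follows: active = viability at or below 27.92% in each of two runs, the all-compound median minus 4 SD; inconclusive = no clear call, values can overlap the other calls; inactive = the rest.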
Measured endpoint: viability

Measured viability, CCOc1ccccc1Nc1nnc(Cc2ccccc2Cl)c(=O)[nH]1 : 94.6% (inactive)

* * *

# Test summary: growth suppression of beta-catenin knockout HCT116, pilot screen, human colon tumor cells (AID 823);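 further: 0% = wells killed by 20 µM Hyamine and 100% = untreated DMSO cell wells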
# Stated conditions: CellTiter-Glo, 60 h, at 10 µM, stronger effect = lower value
Results filed as inconclusive are left out. The source made the active and inactive calls.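 Rule for the calls: active = cell viability at or below a set limit in both duplicate runs, the limit being the all-compound median minus 4 SD (cut at about 23% in these data, passing the limit was not always enough); inconclusive = no clear call, values can overlap the other calls; inactive = the rest.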
Measured endpoint: viability

Take a look at these entries with their results.
[
  {
    "Molecule": "COCCNC(=O)c1cc2c(=O)n(C)c3ccccc3c2n1C",
    "viability": "84.4% (inactive)"
  },
  {
    "Molecule": "COc1ccc(NC2c3ccccc3C(=O)N2Cc2ccco2)cc1OC (stereo unspecified)",
    "viability": "97.5% (inactive)"
  },
  {
    "Molecule": "CCCc1nc(SCC(=O)NCc2ccc3c(c2)OCO3)c2c(=O)n(C)c(=O)n(C)c2n1",
    "viability": "61.1% (inactive)"
  },
  {
    "Molecule": "COc1ccccc1S(=O)Cc1ccc(C(=O)NCc2ccccc2Cl)o1 (stereo unspecified)",
    "viability": "100% (inactive)"
  },
  {
    "Molecule": "Cc1sc2ncnc(NCCCO)c2c1C",
    "viability": "103% (inactive)"
  }
]

Please turn your attention to the following entry.
Measured viability, C=CCSc1nnc2c(n1)[nH]c1c(C)cccc12 : 64.6% (inactive)

* * *

# Test summary: inhibitors of the yeast RAM network, pilot screen, dse1pr::URA3 reporter, 5-FOA selection (AID 869);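 further: 0% = DMSO wells with no growth and 100% = 10 µM 1-NA-PP1 with full growth; RAM network block rescues cells from 5-FOA so hits raise OD615 growth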
# Stated conditions: S. cerevisiae dse1pr::URA3 5-FOA growth, OD615, 2 d; at 10 µM; stronger effect = higher value; strain carries analog-sensitive mutant Cbk1 kinase
Measured endpoint: inhibition (%)
Just the number in %, nothing appended.

Take a look at these entries with their results.
[
  {
    "Compound": "Cc1coc2c(C)c3oc(=O)c4c(c3cc12)CCCC4",
    "Measured endpoint": "inhibition",
    "Recorded result": 2.46
  },
  {
    "Compound": "Cc1cccc(-c2nc(CS(=O)CC(=O)NCC3CCCO3)c(C)o2)c1 (stereo not drawn)",
    "Measured endpoint": "inhibition",
    "Recorded result": 0.725
  },
  {
    "Compound": "CN(Cc1ccccc1)S(=O)(=O)c1ccc2[nH]c(=O)oc2c1",
    "Measured endpoint": "inhibition",
    "Recorded result": 0.425
  },
  {
    "Compound": "Cc1cccc(-c2nc(CS(=O)CC(=O)NC3CCCC3)c(C)o2)c1 (stereo not drawn)",
    "Measured endpoint": "inhibition",
    "Recorded result": 3.42
  }
]

Measured inhibition, COc1cc2c(C(=O)NCc3ccccn3)cn(CC(C)C)c(=O)c2cc1OC : 1.55

Measured inhibition, O=C(NCCCNC(=O)c1ccco1)c1ccco1 : -0.525

* * *

# Test summary: growth suppression of beta-catenin knockout HCT116, pilot screen, human colon tumor cells (AID 823);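 further: 0% = wells killed by 20 µM Hyamine and 100% = untreated DMSO cell wells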
# Stated conditions: CellTiter-Glo, 60 h, at 10 µM, stronger effect = lower value
Inconclusive results are not listed. Activity calls are given as the source filed them.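 Rule for the calls: active = cell viability at or below a set limit in both duplicate runs, the limit being the all-compound median minus 4 SD (cut at about 23% in these data, passing the limit was not always enough); inconclusive = no clear call, values can overlap the other calls; inactive = the rest.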
Measured endpoint: viability

Take a look at these entries with their results.
[
  {
    "Compound": "CCOC(=O)C1CCCN(C(=O)c2cc3c(=O)n(C)c4ccccc4c3n2C)C1 (stereo unspecified)",
    "viability": "94.2% (inactive)"
  },
  {
    "Compound": "CCSc1nc2c(cnn2-c2ccc(C)c(C)c2)c(=O)[nH]1",
    "viability": "98.8% (inactive)"
  },
  {
    "Compound": "COC(=O)C1C(=O)c2c([nH]c(C(=O)OC3CCCC3C)c2C)CC1C (stereo unspecified)",
    "viability": "81.2% (inactive)"
  },
  {
    "Compound": "CCC(=O)N=c1sc2c(C)cc(C)cc2n1CC(=O)OC",
    "viability": "92.4% (inactive)"
  },
  {
    "Compound": "O=C(O)CN1C(=O)COc2cc(S(=O)(=O)N3CCCC3)ccc21",
    "viability": "94.8% (inactive)"
  }
]

Measured viability, c1ccc(OCCSc2ncnc3nc[nH]c23)cc1 : 93.3% (inactive)

Measured viability, O=C(NCCc1csc(-c2cccnc2)n1)c1cccs1 : 103% (inactive)

Measured viability, COc1ccc(N2CCN(C3CC(=O)N(C)C3=O)CC2)cc1 (stereo unspecified) : 103% (inactive)

Measured viability, CCCN1Cc2cccc(C(=O)Nc3ccc4c(c3)OCCO4)c2C1=O : 106% (inactive)

Measured viability, Cc1ccsc1-c1nc(CSCC(=O)NCc2ccc3c(c2)OCO3)c(C)o1 : 87.2% (inactive)

Measured viability, CCC(C)NC(=O)c1c(-c2cc(Cl)c(OC)c(Cl)c2)noc1C (stereo unspecified) : 96.7% (inactive)

* * *

Entries annotated with measured viability increase
# Test summary: viability gain of MRP-1-high H69AR cells under doxorubicin, pilot screen, MRP-1 activator project, CellTiter-Glo, duplicate (AID 807);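 further: compound pretreatment 18-22 h then 72 h combined with doxorubicin; 0% = doxorubicin alone and 100% = vehicle without doxorubicin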
# Stated conditions: H69AR viability with doxorubicin, CellTiter-Glo luminescence; at 10 µM; stronger effect = higher value
Just the number in %, nothing appended.

[
  {
    "Compound": "Cc1cc(C(=O)OCc2nnc(-c3ccccc3)o2)c(C)n1-c1ccccc1",
    "viability increase [%]": -1.07
  },
  {
    "Compound": "Cc1c(C(=O)NCc2ccccn2)sc2nc(-c3ccccc3)cn12",
    "viability increase [%]": 0.68
  },
  {
    "Compound": "O=C(CCNS(=O)(=O)c1cccc2nsnc12)NC1CCN(Cc2ccccc2)CC1",
    "viability increase [%]": -2.01
  },
  {
    "Compound": "CCCN(CCC)C(=O)COc1cc(=O)n(CC)c2ccccc12",
    "viability increase [%]": -1.75
  },
  {
    "Compound": "CCCc1[nH]nc2c1C(C1CCCCC1)C(C#N)=C(N)O2 (stereo unspecified)",
    "viability increase [%]": -6.54
  }
]

Measured viability increase, O=C(Oc1ccccc1)c1cccc(N2C(=O)CCC2=O)c1 : -1.06
